METHOD SUMMARY: Triptolide plasma toxicokinetics in mice
Type: in vivo
CONDITION: C57, mouse, iv, 1 mg/kg, TP 1.0 mg/kg iv, 15 nmol mdr1a-siRNA iv 2 days before
Procedure: For TP plasma kinetic study and toxicological evaluation, mice were divided into four groups (n = 5 each) to collect blood and tissue samples: (1) normal + saline group; (2) 1.0 mg/kg TP + 15 nmol NC-siRNA group; (3) 1.0 mg/kg TP + 15 nmol mdr1a-siRNA group; (4) 1.0 mg/kg TP + 10 mg/kg tariquidar group. […] The concentrations of TP in plasma and liver tissue were measured by a validated LC-MS/MS method. […] The TP in plasma and tissue samples was quantitatively analyzed by a published LC-MS/MS method. […]
TEST READOUT: AUC(0-t) (ng·h/mL)
Kindly answer with a numeric value in ng·h/mL, unit omitted.

Inquiry: Please look up its AUC(0-t): CC(C)[C@]12O[C@H]1[C@@H]1O[C@]13[C@]1(O[C@H]1C[C@H]1C4=C(CC[C@@]13C)C(=O)OC4)[C@@H]2O [TP, Triptolide]
Reply text: 154
